Entries and their pIC50
Test system: MOLM14 cells
Test: Proliferation assay, spheroid-like growth, MOLM14 (MLL-AF9 rearranged)
Type: cell-based, human
Conditions: Homo sapiens, MOLM-14, 192 h, 8 days, confluence as measure of spheroid size, read-out: spheroid assay_OneTime MOLM14 IC50
Lab note: report pIC50 as minus log10 of the concentration in molar units, number only.

A selection of reference data follows.
Compound: CC(C)[C@H]([C@H]1C[C@@H](N2CCN(C(=O)N(C)C)CC2)C1)N1CC2(CCN(c3ncnnc3Oc3ccc(F)cc3-c3cncnc3C3CC3)C2)C1 (single isomer, unassigned) [Compound 36]
Target Or Test System: MOLM14 cells
pIC50: 8.00

Compound: CC(C)[C@@H]([C@H]1C[C@@H](N2CC[C@@](C)(O)C2)C1)N1CC2(CCN(c3ncnnc3Oc3ccc(F)cc3-c3cnncc3C3CC3)C2)C1 (single isomer, unassigned) [Compound 114]
Target Or Test System: MOLM14 cells
pIC50: 8.10

Compound: CC(C)[C@H]([C@H]1C[C@@H](Nc2n[nH]c3ncccc23)C1)N1CC2(CCN(c3ncnnc3Oc3ccc(F)cc3-c3cncnc3C3CC3)C2)C1 (single isomer, unassigned) [Compound 448]
Target Or Test System: MOLM14 cells
pIC50: 8.34

Compound: CC(C)C([C@H]1C[C@@H](N2CCS(=O)(=O)CC2)C1)N1CC2(CCN(c3ncnnc3Oc3ccc(F)cc3-c3cncnc3C3CC3)C2)C1 (stereo partly shown) [Compound 123]
Target Or Test System: MOLM14 cells
pIC50: 5.72

# evaluate next
(Q) Could you tell me which pIC50 is on file for CNC(=O)c1cnc(N[C@H]2C[C@@H]([C@@H](C(C)C)N3CC4(CCN(c5ncnnc5Oc5ccc(F)cc5-c5cnc(C)nc5C5CC5)C4)C3)C2)o1 (single isomer, unassigned) [Compound 416] ?
(A) 8.05

###

Quick reference: IC50 of the listed items.
Molecular target: menin/MLL (terbium chelate-labeled menin, FITC-MBM1 peptide) (Homo sapiens, UniProt O00255, T541A)
Construct: Menin (a.a 1-610-6xhis tag)
Sequence (O00255 with tags, fused parts or gaps T541A): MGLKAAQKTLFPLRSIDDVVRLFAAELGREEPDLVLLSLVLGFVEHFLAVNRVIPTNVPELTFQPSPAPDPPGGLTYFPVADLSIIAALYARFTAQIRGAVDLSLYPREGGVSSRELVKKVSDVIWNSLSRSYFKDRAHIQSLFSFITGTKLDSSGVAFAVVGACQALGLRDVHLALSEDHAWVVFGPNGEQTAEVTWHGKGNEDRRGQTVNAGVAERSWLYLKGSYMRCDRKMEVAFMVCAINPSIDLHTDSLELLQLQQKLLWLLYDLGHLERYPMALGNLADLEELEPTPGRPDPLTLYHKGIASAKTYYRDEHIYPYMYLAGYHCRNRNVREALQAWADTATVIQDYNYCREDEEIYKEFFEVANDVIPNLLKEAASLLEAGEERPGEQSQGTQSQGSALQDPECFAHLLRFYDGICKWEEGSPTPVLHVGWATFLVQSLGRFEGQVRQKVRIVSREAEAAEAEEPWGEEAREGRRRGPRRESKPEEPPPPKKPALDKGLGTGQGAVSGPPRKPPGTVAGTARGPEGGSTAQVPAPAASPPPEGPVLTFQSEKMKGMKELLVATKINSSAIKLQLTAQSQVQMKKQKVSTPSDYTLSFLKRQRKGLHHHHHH
Assay: Menin/MLL homogenous time-resolved fluorescence (HTRF) assay
Conditions: 30 min incubation
Dear colleague, please return just the value in nM, with no unit written.

Molecule: CC(C)[C@H]([C@H]1C[C@@H](N2C[C@H](O)C3(CC3)C2)C1)N1CC2(CCN(c3ncnnc3Oc3ccc(F)cc3-c3cncnc3C3CC3)C2)C1 (single isomer, unassigned) [Compound 45]
Units Text: nM
IC50: 0.2

Molecule: CC1CN([C@H]2C[C@@H]([C@H](C(C)C)N3CC4(CCN(c5ncnnc5Oc5ccc(F)cc5-c5cncnc5C5CC5)C4)C3)C2)CCC1O (single isomer, unassigned) [Compound 87]
Units Text: nM
IC50: 1.9

Molecule: CC(=O)N1CC2(C1)CN([C@H]1C[C@@H]([C@@H](C(C)C)N3CC4(CCN(c5ncnnc5Oc5ccc(F)cc5-c5cncnc5C5CC5)C4)C3)C1)C2 (single isomer, unassigned) [Compound 170]
Units Text: nM
IC50: 0.1

Molecule: CC(=O)N1CC2(CCN([C@H]3C[C@@H]([C@H](C(C)C)N4CC5(CCN(c6ncnnc6Oc6ccc(F)cc6-c6cnc(C)nc6C6CC6)C5)C4)C3)C2)C1 [Compound 381]
Units Text: nM
IC50: 0.14

Moving on to another molecule below.
(Q) IC50 for CC(C)[C@H]([C@H]1C[C@@H](NC(=O)C2CC2)C1)N1CC2(CCN(c3ncnnc3Oc3ccc(F)cc3-n3ncnc3C3CC3)C2)C1 (single isomer, unassigned) [Compound 308] ?
(A) 0.2

The reported measurements were obtained from patent US20240417405A1.
